tested on: SNB-19; test: NCI tumour cell line growth inhibition, 48 h
Activity calls are given as the source filed them. Rule as the data show it: active = GI50 up to about 1.1 µM and inactive = higher.
Known GI50 of a selection of molecules

Molecule: O=C(CC1(O)C(=O)Nc2c(Cl)cccc21)c1ccccc1 (stereo not drawn)
GI50: > 100 µM (inactive)

Per the reported SNB-19 data, CCOc1ccc(N/C(=C(/C(Cl)=C(/Cl)NC(C)(C)C)[N+](=O)[O-])n2nnc3ccccc32)cc1 has GI50 of 47.6 µM (inactive)

Per the reported SNB-19 data, CN(C)CCNC(=O)c1cccc2c(NC(CS)C(=O)O)c3ccccc3nc12 (stereo not drawn) has GI50 of 7.52 µM (inactive)

Per the reported SNB-19 data, CC1(C)CC[C@]2(C(=O)O)CC[C@]3(C)C(=CC[C@@H]4[C@@]5(C)CC[C@H](OC6OC(CO)C(O)C(O)C6OC6OC(CO)C(O)C(O)C6O)C(C)(C)[C@@H]5CC[C@]43C)[C@@H]2C1 (stereo partly drawn) has GI50 of 18.3 µM (inactive)

Per the reported SNB-19 data, Cc1c2cccc(Sc3ccccc3)c2c2c3c(cccc13)[S+](c1ccccc1)C2 (stereo not drawn) has GI50 of 1.73 µM (inactive)

Per the reported SNB-19 data, Cc1nc2c(=O)n(C)c(=O)nc-2n(-c2ccc(Cl)cc2)c1C has GI50 of > 100 µM (inactive)

Per the reported SNB-19 data, O=S(=O)(O)CCCc1cccc2ccccc12 has GI50 of > 100 µM (inactive)

----------
system: COLO 205; test: NCI tumour cell line growth inhibition, 48 h
Activity calls are given as the source filed them. Cut-off read from the data, not from the text of the source: active = GI50 up to about 1.1 µM and inactive = higher.
Attribute measured: GI50

Example cases with answers are listed next.
Molecule: COC(=O)C(Cc1c[nH]c2ccccc12)NC(=O)C(Cc1c[nH]cn1)NC(=O)C1CCC(=O)N1C(=O)OCc1ccccc1 (stereo not given)
GI50: > 100 µM (inactive)
//
Molecule: Nc1nc(NNc2ccc(Cl)c(Cl)c2)cc(=O)[nH]1
GI50: 16.6 µM (inactive)
//
Molecule: S=c1[nH]nc(Cc2ccccc2)c(=S)[nH]1
GI50: > 79.6 µM (inactive)
//
Molecule: C=CC1(c2ccc(OC)cc2)OCCCO1
GI50: > 100 µM (inactive)
//
Molecule: O=c1[nH][nH]c(=O)n1Cc1ccccc1Cn1c(=O)[nH][nH]c1=O
GI50: > 100 µM (inactive)

Per the reported COLO 205 data, COc1ccc(-c2cc(-c3ccccc3)nc(N)n2)c(O)c1 has GI50 of > 100 µM (inactive)

Per the reported COLO 205 data, COc1ccc(OC2OC(CO)C(OCc3ccccc3)C(OCc3ccccc3)C2OCc2ccccc2)cc1 (stereo not given) has GI50 of 44.4 µM (inactive)

Per the reported COLO 205 data, CC(=O)NC(C)c1ccc(/N=N/N2CCCC2)cc1 (stereo not given) has GI50 of > 100 µM (inactive)

Per the reported COLO 205 data, CCOC(=O)c1c(NS(=O)(=O)c2ccc(C)cc2)sc2c1CCCC2 has GI50 of 19 µM (inactive)

Per the reported COLO 205 data, CC1OC(OP(=O)(OCc2ccccc2)OCc2ccccc2)C(OC(=O)c2ccccc2)C(OC(=O)c2ccccc2)C1I (stereo not given) has GI50 of 30.2 µM (inactive)

Per the reported COLO 205 data, N#Cc1c(/C=C/c2ccccc2)c2c([nH]c1=S)CCCCC2 has GI50 of > 100 µM (inactive)

Per the reported COLO 205 data, COC(=O)[C@@H]1C[C@H]([Se]c2ccccc2)CN1S(=O)(=O)c1ccc(C)cc1 has GI50 of 61.5 µM (inactive)

Per the reported COLO 205 data, CCCc1c(O)nc(Nc2nc3ccccc3[nH]2)[nH]c1=O has GI50 of > 100 µM (inactive)

Recorded values, source ChEMBL document CHEMBL1201862.
